I'd be grateful if you could share measured inhibition at 50 µM for these entries.
measured.on: human α-synuclein (Homo sapiens)
Construct: made in house; host or cells: E. coli
measurement.protocol: In vitro Thioflavin T assay of α-synuclein aggregation
Format: biochemical
recorded.conditions: compounds at 50 μM; 50 μM α-synuclein; ThT fluorescence at 40 hours; read-out: Inhibition of Aggregation αSyn
API: value field is a number in %; no unit string.

The measured inhibition at 50 µM that CCc1ccc(O)c(OC)c1 [4-ethyl guaiacol, 4-ethyl-2-methoxyphenol] showed for human α-synuclein (Homo sapiens) is -2

human α-synuclein (Homo sapiens) data for CC(Cc1ccc(O)c(O)c1)C(C)Cc1ccc(O)c(O)c1 (stereo not shown) [NDGA] ; its inhibition at 50 µM: 54

Measured inhibition at 50 µM for this entry CCCCCCCCCCCCOC(=O)c1cc(O)c(O)c(O)c1 [lauryl gallate, dodecyl 3,4,5-trihydroxybenzoate] on human α-synuclein (Homo sapiens): 33

The reported inhibition at 50 µM value, human α-synuclein (Homo sapiens), for O=C(O[C@@H]1Cc2c(O)cc(O)cc2O[C@@H]1c1cc(O)c(O)c(O)c1)c1cc(O)c(O)c(O)c1 [EGCG, epigallocatechin gallate] reads 99

So the reported inhibition at 50 µM for O=C(O)c1cc(O)c(O)c(O)c1 [gallic acid, 3,4,5-trihydroxybenzoic acid] , on human α-synuclein (Homo sapiens), turned out to be 99

human α-synuclein (Homo sapiens) data for C/C=C/c1ccc(O)c(OC)c1 [isoeugenol, 2-methoxy-4-(prop-1-en-1-yl)phenol] ; its inhibition at 50 µM: 9

human α-synuclein (Homo sapiens) inhibition at 50 µM of O=c1c(O)c(-c2ccc(O)cc2O)oc2cc(O)cc(O)c12 [morin] is 88

Test item COc1ccccc1O [guaiacol, 2-methoxyphenol] ; human α-synuclein (Homo sapiens); reported inhibition at 50 µM was -2

Record O=C(CCc1ccc(O)cc1)c1c(O)cc(O)cc1O [phloretin] ; system human α-synuclein (Homo sapiens); inhibition at 50 µM = 46

Short answer on human α-synuclein (Homo sapiens) for COc1cc(O)ccc1O [methoxy-hydroquinone, 2-methoxybenzene-1,4-diol] , inhibition at 50 µM: 100

* * *

measured.on: α-synuclein seeded by E. coli CsgA (Homo sapiens, UniProt P37840)
Construct: made in house; host or cells: E. coli NEB 3016 slyD::kan (CsgA, pET11d); E. coli (α-synuclein)
measurement.protocol: In vitro Thioflavin T assay of CsgA-seeded α-synuclein aggregation
Type: biochemical
recorded.conditions: compounds at 50 μM; 2 μM CsgA, 50 μM α-synuclein; ThT fluorescence at 40 hours; read-out: Inhibition of Aggregation CsgA-seeded αSyn
Please respond with reported inhibition at 50 µM for every item in the list.
Write down the numeric answer in % and omit the unit.

# inhibition at 50 µM of CCCCCCCCCCCCOC(=O)c1cc(O)c(O)c(O)c1 [lauryl gallate, dodecyl 3,4,5-trihydroxybenzoate] = 24

The molecule listed as O=C(CCc1ccc(O)cc1)c1c(O)cc(O)cc1O [phloretin] shows inhibition at 50 µM equal to 21

Measured inhibition at 50 µM of COc1cc(O)ccc1O [methoxy-hydroquinone, 2-methoxybenzene-1,4-diol] : 80

For reference, reported inhibition at 50 µM for COc1cc(/C=C/C(=O)/C=C(O)/C=C/c2ccc(O)c(OC)c2)ccc1O [curcumin] stands at 86

Form: molecule = O=C(O[C@@H]1Cc2c(O)cc(O)cc2O[C@@H]1c1cc(O)c(O)c(O)c1)c1cc(O)c(O)c(O)c1 [EGCG, epigallocatechin gallate] ; inhibition at 50 µM = 77

Record summary for C/C=C/c1ccc(O)c(OC)c1 [isoeugenol, 2-methoxy-4-(prop-1-en-1-yl)phenol] : reported inhibition at 50 µM = 35

inhibition at 50 µM recorded for this molecule, CC(Cc1ccc(O)c(O)c1)C(C)Cc1ccc(O)c(O)c1 (centres unmarked) [NDGA] , is 39

Field inhibition at 50 µM (entry COc1ccccc1O [guaiacol, 2-methoxyphenol] ) reads 40
